B1: NELF-E aptamer (parent)
chain: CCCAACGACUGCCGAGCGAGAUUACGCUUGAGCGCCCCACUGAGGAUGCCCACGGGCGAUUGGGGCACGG

Variants of: B1
Assay: HiTS-RAP
Conditions: with NELF-E (Drosophila)
Mark condition met for Kd under 8 nM, condition not met if at or over.

• A4G G45U = condition not met
• C25G U29G = condition met
• U41G C51U = condition met
• C6A C9G = condition met
• C9G U60C = condition not met
• A5G U29C = condition met
